# System: rodent lifetime carcinogenesis bioassay, tumor incidence TD50
# experimental details: carcinogenic potency in animals, long-term in vivo studies, CPDB compilation (AID 1745844)
# test settings: rat; strain F344/DuCrj; females; in feed; site: liver; lesion: hepatocellular tumor; dosed 96 weeks; study length 96 weeks
measure name: TD50

Entry CCCCOCCOCCOCc1cc2c(cc1CCC)OCO2 , TD50 reported as 977 mg/kg/day

----------
# System: rodent lifetime carcinogenesis bioassay, tumor incidence TD50
# experimental details: carcinogenic potency in animals, long-term in vivo studies, CPDB compilation (AID 1745844)
# test settings: rat; strain Fischer 344; females; inhaled; site: any site (literature study); lesion: several types; types named in the paper; dosed 102 weeks; study length 105 weeks
measure name: TD50 (mg/kg/day)
Expressed in mg/kg/day, but write only the number.

Entry CCCl , TD50 reported as 2660
